Biological target: UniProt:P49841
Sequence (P49841 whole entry): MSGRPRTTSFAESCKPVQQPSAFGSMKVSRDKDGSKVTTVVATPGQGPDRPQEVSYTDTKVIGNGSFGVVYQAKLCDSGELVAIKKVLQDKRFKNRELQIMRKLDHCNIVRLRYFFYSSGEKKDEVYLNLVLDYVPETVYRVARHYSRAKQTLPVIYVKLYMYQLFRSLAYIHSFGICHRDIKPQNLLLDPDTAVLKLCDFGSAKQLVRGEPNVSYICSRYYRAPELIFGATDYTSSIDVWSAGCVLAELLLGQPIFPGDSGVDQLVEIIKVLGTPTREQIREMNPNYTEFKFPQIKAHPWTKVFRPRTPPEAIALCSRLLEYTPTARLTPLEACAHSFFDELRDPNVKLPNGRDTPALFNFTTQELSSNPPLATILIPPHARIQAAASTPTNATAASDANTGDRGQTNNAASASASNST

{"compound": "O=c1cc(-c2ccc(O)c(O)c2)oc2c([C@@H]3O[C@H](CO)[C@@H](O)[C@H](O)[C@H]3O)c(O)cc(O)c12 [compound 3, orientin, reference compound]", "IC50": "> 5 mM"}

---

Experiment: Parallel artificial membrane permeability assay
Settings: PAMPA, pH 7.4

{"structure string": "COc1ccc(-c2cc(=O)c3c(OC)c([C@@H]4O[C@H](C(=O)N[C@@H](C)C(F)(F)F)[C@@H](O)[C@H](O)[C@H]4O)c(OC)cc3o2)cc1OC", "recovery at 5 h, 20 μM (%)": 30}

---

Papp at 5 h, 20 μM overview
Assay: Parallel artificial membrane permeability assay
Details: PAMPA, pH 7.4, PAMPA permeability classification, 20 μM, pH 7.4, 5 h

{"compound": "COc1ccc(-c2cc(=O)c3c(OC)c([C@@H]4O[C@H](C(=O)N[C@@H](C)C(F)(F)F)[C@@H](O)[C@H](O)[C@H]4O)c(OC)cc3o2)cc1OC [compound 30]", "Papp at 5 h, 20 μM": "> 1.5 ×10⁻⁶ cm/s"}
{"compound": "COc1ccc(-c2cc(=O)c3c(OC)c([C@@H]4O[C@H](C(=O)NC5CCCCC5)[C@@H](O)[C@H](O)[C@H]4O)c(OC)cc3o2)cc1OC [compound 17]", "Papp at 5 h, 20 μM": "> 1.5 ×10⁻⁶ cm/s"}
{"compound": "COc1ccc(-c2cc(=O)c3c(OC)c([C@@H]4O[C@H](C(=O)NC(C)C)[C@@H](O)[C@H](O)[C@H]4O)c(OC)cc3o2)cc1OC [compound 9]", "Papp at 5 h, 20 μM": "> 1.5 ×10⁻⁶ cm/s"}
{"compound": "COc1ccc(-c2cc(=O)c3c(OC)c([C@@H]4O[C@H](C(=O)NCc5ccccc5)[C@@H](O)[C@H](O)[C@H]4O)c(OC)cc3o2)cc1OC [compound 21]", "Papp at 5 h, 20 μM": "1 to 1.5 ×10⁻⁶ cm/s"}
